experiment: Selectivity index, ratio of LD50 for human WI-38 cells to LD50 for human MDA-MB-231 cells assessed as inhibition of cell proliferation by MTT assay; format: toxicity; settings: WI-38 cells and MDA-MB-231 cells, read-out: Selectivity Index
measured_quantity: selectivity ratio

Task: Consider the compound O=C(c1ccccc1)[C@H]1Oc2ccc3cc(Br)ccc3c2[C@@H]1c1ccccc1 and give its measured selectivity ratio.
Result: 2.36

Task: Consider the compound Cc1ccc(C(=O)[C@@H]2Cc3c(ccc4ccccc34)O2)cc1 and give its measured selectivity ratio.
Result: 3.05

Task: Consider the compound O=C(c1ccc(Br)cc1)[C@@H]1Cc2c(ccc3ccccc23)O1 and give its measured selectivity ratio.
Result: 2.43
